# system.under.test: 5HT6 human recombinant receptor (Homo sapiens, UniProt P50406)
# Construct: purchased Receptor Biology; host or cells: HEK-293 cell membranes
# Sequence (P50406 whole entry): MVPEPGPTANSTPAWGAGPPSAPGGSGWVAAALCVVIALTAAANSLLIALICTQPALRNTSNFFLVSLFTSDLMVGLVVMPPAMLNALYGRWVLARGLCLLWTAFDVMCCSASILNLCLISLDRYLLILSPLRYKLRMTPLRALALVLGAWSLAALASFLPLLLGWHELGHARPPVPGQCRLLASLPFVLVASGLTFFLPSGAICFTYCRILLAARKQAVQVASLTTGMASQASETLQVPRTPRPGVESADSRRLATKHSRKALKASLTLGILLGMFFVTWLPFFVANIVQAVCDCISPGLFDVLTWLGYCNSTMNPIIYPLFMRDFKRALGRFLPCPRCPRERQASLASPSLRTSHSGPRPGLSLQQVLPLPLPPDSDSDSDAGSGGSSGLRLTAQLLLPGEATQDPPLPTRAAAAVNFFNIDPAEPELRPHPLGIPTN
# test.protocol: Binding test to 5-HT6 receptors ([3H]-LSD displacement, HEK-293 cell membranes)
# run.parameters: compound concentration 10^−7 M; radioligand [3H]-LSD 2.7 nM; 60 min, 37° C.; read-out: % Inhibition 10^−7 M
quantity.measured: inhibition at 0.1 µM (%)

Cc1c(S(=O)(=O)Nc2ccc3c(c2)C(CCN(C)C)=CC3(C)C)sc2ccc(Cl)cc12 [Example 42]	2.3
CC1=C(CCN2CCCC2)c2cc(NS(=O)(=O)c3c(Cl)nc4sccn34)ccc2C1 [Example 29]	82

1: CC1=C(CCN(C)C)c2cc(NS(=O)(=O)c3ccc4ccccc4c3)ccc2C1 [Example 34]
2: CN(C)CCC1=CC(C)(C)c2ccc(NS(=O)(=O)c3c(Cl)nc4sccn34)cc21 [Example 41]
# argmax over inhibition at 0.1 µM for candidates 1 and 2 Refer to your chosen item by its label in the answer. 1
(1: 71%, 2: 24.5%)

* * *

# system.under.test: 5HT6 human recombinant receptor (Homo sapiens)
# Construct: purchased Receptor Biology; host or cells: HEK-293 cell membranes
# test.protocol: Binding test to 5-HT6 receptors ([3H]-LSD displacement, HEK-293 cell membranes)
# run.parameters: compound concentration 10^−8 M; radioligand [3H]-LSD 2.7 nM; 60 min, 37° C.; read-out: % Inhibition 10^−8 M
quantity.measured: inhibition at 0.01 µM (%)

Examples from the recorded data:
CC1=C(CCO)c2cc(NS(=O)(=O)c3ccc4ccccc4c3)ccc2C1	8
CC1=C(CCN(C)C)c2cc(S(=O)(=O)Nc3cccc4ccccc34)ccc2C1	25

P: CC1=C(CCN2CCCC2)c2cc(NS(=O)(=O)c3ccc(N)cc3)ccc2C1
Q: CC1=C(CCN2CCCC2)c2cc(NS(=O)(=O)c3c(Cl)nc4sccn34)ccc2C1
Which gives the smaller inhibition at 0.01 µM number: P or Q ? Write down the label attached to your selection. P

* * *

# system.under.test: 5HT6 human recombinant receptor (Homo sapiens, UniProt P50406)
# Construct: purchased Receptor Biology; host or cells: HEK-293 cell membranes
# test.protocol: Binding test to 5-HT6 receptors ([3H]-LSD displacement, HEK-293 cell membranes)
# run.parameters: compound concentration 10^−7 M; radioligand [3H]-LSD 2.7 nM; 60 min, 37° C.; read-out: % Inhibition 10^−7 M
quantity.measured: inhibition at 0.1 µM (%)

Study these solved cases before continuing.
CC1=C(CCN(C)C)c2cc(NS(=O)(=O)c3csc4ccccc34)ccc2C1 [Example 44]	88.3
CC1=C(CCO)c2cc(NS(=O)(=O)c3ccc4ccccc4c3)ccc2C1 [Example 40]	16
CC1=C(C2CCCN(C)C2)c2cc(NS(=O)(=O)c3c(Cl)nc4sccn34)ccc2C1 (centres unmarked) [Example 46]	85.8

1: CC1=C(CCN2CCCC2)c2cc(NS(=O)(=O)c3ccc(N)cc3)ccc2C1 [Example 32]
2: CC1=C(C2CCN(C)C2)c2cc(NS(=O)(=O)c3c(Cl)nc4sccn34)ccc2C1 (centres unmarked) [Example 45]
// compare measured inhibition at 0.1 µM between 1 and 2 ; output the lower one Kindly state the label of the option you pick. 2

a: CC1=C(CCN(C)C)c2cc(NS(=O)(=O)c3cccc4ccccc34)ccc2C1 [Example 43]
b: CC1=C(CCN(C)C)c2cc(S(=O)(=O)Nc3cccc4ccccc34)ccc2C1 [Example 39]
Please tell me which of the two, a or b , has the higher reported inhibition at 0.1 µM value. Please reply using the label of the selected record. a

These data points were gathered from patent US8217041B2.
